# Tested on: LXRb homodimer (NR concentration 270 nM)
# Test description: PBM binding z-score (relative to random genomic background probes); higher = stronger binding; sequences stand for … in GC…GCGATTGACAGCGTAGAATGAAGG
Metric name: PBM binding z-score

Seq: GGAACGAGGGCAAAGTTAATAGCATCTGTCGACG
PBM binding z-score: -0.23

Seq: AGAATGAGGTTATTAAGATAAGGGAATTGCGGTC
PBM binding z-score: -0.0386

Seq: CCGACTGGGGCATAAGGTTATCATAAGCCAGCCC
PBM binding z-score: -1.15

Seq: GTATATAGGTAATACAAGGTGAAAGTCCGATTGT
PBM binding z-score: 0.188

Seq: CCAGACAGGTGAGGAGGTAACTCAGCCTCGATTA
PBM binding z-score: -0.29

Query: I have this sequence here, TCATATAGGCAATACAGGTGAAAGTCGGCATCTA , and I need its recorded PBM binding z-score.
Result: -0.3
